Consider the following pIC50 values measured on Cathepsin D (Homo sapiens, UniProt P07339).
Sequence (P07339 65-162 limits assumed): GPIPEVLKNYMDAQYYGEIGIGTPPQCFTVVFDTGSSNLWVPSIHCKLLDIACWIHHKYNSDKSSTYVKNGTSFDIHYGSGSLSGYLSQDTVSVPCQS
Sequence (P07339 169-412 limits assumed): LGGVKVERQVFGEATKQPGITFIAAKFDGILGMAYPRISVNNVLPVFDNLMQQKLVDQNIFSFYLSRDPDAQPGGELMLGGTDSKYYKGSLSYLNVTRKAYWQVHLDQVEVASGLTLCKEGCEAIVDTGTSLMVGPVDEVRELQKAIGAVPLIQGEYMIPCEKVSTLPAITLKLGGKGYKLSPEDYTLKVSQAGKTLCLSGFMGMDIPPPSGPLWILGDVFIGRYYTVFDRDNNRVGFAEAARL
In simple prose, pIC50 is minus the logarithm base ten of a concentration in moles per litre.

Examples with their reported pIC50 follow.
[[record]]
sample_smiles = "CCCN(CCC)C(=O)c1cc(C(=O)N[C@@H](Cc2ccccc2)[C@H](O)CNC(C)(C)c2ccccc2)cc(N2CCCCS2(=O)=O)c1"
tgt = "Cathepsin D (Homo sapiens, UniProt P07339)"
reported_property = "pIC50"
data_value = 6.92

[[record]]
sample_smiles = "CCCN(CCC)C(=O)c1cc(C(=O)N[C@@H](Cc2ccccc2)[C@H](O)CNC(C)(C)c2cccnc2)cc(N2CCCCC2)c1"
tgt = "Cathepsin D (Homo sapiens, UniProt P07339)"
reported_property = "pIC50"
data_value = 6.85

[[record]]
sample_smiles = "CCCN(CCC)C(=O)c1cc(C(=O)N[C@@H](Cc2ccccc2)[C@H](O)CNC(C)(C)c2ccccn2)cc(N2CCCCC2)c1"
tgt = "Cathepsin D (Homo sapiens, UniProt P07339)"
reported_property = "pIC50"
data_value = 6.46

[[record]]
sample_smiles = "CCCN(CCC)C(=O)c1cc(C(=O)N[C@@H](Cc2ccccc2)[C@H](O)CNC(C)(C)c2cccc(OC)c2)cc(N2CCCCC2)c1"
tgt = "Cathepsin D (Homo sapiens, UniProt P07339)"
reported_property = "pIC50"
data_value = 7.38

[[record]]
sample_smiles = "COc1cccc(C(C)(C)NC[C@@H](O)[C@H](Cc2ccccc2)NC(=O)c2cc(C(=O)N3CCCC3)cc(N3CCCCC3)c2)c1"
tgt = "Cathepsin D (Homo sapiens, UniProt P07339)"
reported_property = "pIC50"
data_value = 7.42


Here is the next item to consider.
### Prompt // fetch pIC50 for "COc1cccc(C(C)(C)NC[C@@H](O)[C@H](Cc2ccccc2)NC(=O)c2cc(C(N)=O)cc(N3CCCCC3)c2)c1" ; system: Cathepsin D (Homo sapiens, UniProt P07339)
### Response 6.30

###

target: Plasmepsin II (Plasmodium falciparum)
Sequence (P46925 whole entry): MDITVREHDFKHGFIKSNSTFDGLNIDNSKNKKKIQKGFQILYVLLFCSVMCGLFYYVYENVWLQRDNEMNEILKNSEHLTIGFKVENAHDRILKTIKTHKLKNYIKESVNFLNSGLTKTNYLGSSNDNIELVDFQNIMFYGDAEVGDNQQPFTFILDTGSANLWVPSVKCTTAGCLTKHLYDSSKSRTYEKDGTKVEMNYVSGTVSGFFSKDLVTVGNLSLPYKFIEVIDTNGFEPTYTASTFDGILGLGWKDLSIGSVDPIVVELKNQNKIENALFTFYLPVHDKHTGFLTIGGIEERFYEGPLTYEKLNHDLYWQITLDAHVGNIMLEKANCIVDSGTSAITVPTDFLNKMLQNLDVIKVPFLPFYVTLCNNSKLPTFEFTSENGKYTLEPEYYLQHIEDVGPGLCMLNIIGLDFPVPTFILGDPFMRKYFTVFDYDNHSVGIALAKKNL
reported-property: log10(IC50) (log10 of the value in nM)
Scale: decimal log of IC50, IC50 in nM.

[[record]]
sample_smiles = "CCCNC(=O)c1cc(C(=O)N[C@@H](Cc2ccccc2)[C@H](O)CNC(C)(C)c2cccc(OC)c2)cc(N2CCCCC2)c1"
data_value = 2.70


### Prompt Answer with the recorded log10(IC50) of "CCCN(CCC)C(=O)c1cc(C(=O)N[C@@H](Cc2ccccc2)[C@H](O)CNC(C)(C)c2ccccc2)cc(N2CCCCS2(=O)=O)c1" only.
### Response 2.51

### Prompt Answer with the recorded log10(IC50) of "COc1cccc(C(C)(C)NC[C@@H](O)[C@H](Cc2ccccc2)NC(=O)c2cc(C(N)=O)cc(N3CCCCC3)c2)c1" only.
### Response 3.64

###

Consider the following pIC50 values measured on Plasmepsin I (Plasmodium falciparum).
Sequence (P39898 whole entry): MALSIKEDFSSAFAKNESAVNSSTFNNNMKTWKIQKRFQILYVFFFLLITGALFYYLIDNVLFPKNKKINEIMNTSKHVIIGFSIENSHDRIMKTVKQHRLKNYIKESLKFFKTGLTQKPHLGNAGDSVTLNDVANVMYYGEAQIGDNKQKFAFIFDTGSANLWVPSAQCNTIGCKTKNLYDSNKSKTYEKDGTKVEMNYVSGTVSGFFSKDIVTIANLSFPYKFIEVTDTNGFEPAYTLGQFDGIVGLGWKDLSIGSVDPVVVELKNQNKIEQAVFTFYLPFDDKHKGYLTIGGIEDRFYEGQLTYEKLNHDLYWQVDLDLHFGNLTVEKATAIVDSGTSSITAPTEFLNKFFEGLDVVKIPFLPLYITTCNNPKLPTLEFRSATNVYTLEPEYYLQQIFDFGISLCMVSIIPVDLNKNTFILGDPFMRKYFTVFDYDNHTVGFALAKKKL
In simple prose, pIC50 is minus the logarithm base ten of a concentration in moles per litre.

[[record]]
sample_smiles = "CCCN(CCC)C(=O)c1cc(C(=O)N[C@@H](Cc2ccccc2)[C@H](O)CNC(C)(C)c2cccnc2)cc(N2CCCCC2)c1"
data_value = 6.46

[[record]]
sample_smiles = "CCCN(CCC)C(=O)c1cc(C(=O)N[C@@H](Cc2ccccc2)[C@@H](O)CNC(C)(C)c2ccccc2)cc(N2CCCCS2(=O)=O)c1"
data_value = 4.35

[[record]]
sample_smiles = "CCCN(CCC)C(=O)c1cc(C(=O)N[C@@H](Cc2ccccc2)[C@H](O)CNC(C)(C)c2ccccc2)cc(N2CCCCC2)c1"
data_value = 6.42

[[record]]
sample_smiles = "CCCN(CCC)C(=O)c1cc(C(=O)N[C@@H](Cc2ccccc2)[C@H](O)CNC(C)(C)c2ccncc2)cc(N2CCCCC2)c1"
data_value = 6.33

[[record]]
sample_smiles = "CCCN(CCC)C(=O)c1cc(C(=O)N[C@@H](Cc2ccccc2)[C@H](O)CNC(C)(C)c2cccc(OC)c2)cc(N2CCCC2)c1"
data_value = 6.37

[[record]]
sample_smiles = "CCCN(CCC)C(=O)c1cc(C(=O)N[C@@H](Cc2ccccc2)[C@H](O)CNC2(c3cccc(OC)c3)CC2)cc(N2CCCCC2)c1"
data_value = 6.48


### Prompt // fetch pIC50 for "CCCN(CCC)C(=O)c1cc(C(=O)N[C@@H](Cc2ccccc2)[C@H](O)CNC(C)(C)c2cncc(OC)c2)cc(N2CCCCC2)c1" ; system: Plasmepsin I (Plasmodium falciparum)
### Response 6.22
